Reference source: PubChem BioAssay AID504333

Target: Bromodomain adjacent to zinc finger domain protein 2B (Homo sapiens) (UniProt Q9UIF8)
Sequence (Q9UIF8 whole entry, looked up, the tested form may be a part): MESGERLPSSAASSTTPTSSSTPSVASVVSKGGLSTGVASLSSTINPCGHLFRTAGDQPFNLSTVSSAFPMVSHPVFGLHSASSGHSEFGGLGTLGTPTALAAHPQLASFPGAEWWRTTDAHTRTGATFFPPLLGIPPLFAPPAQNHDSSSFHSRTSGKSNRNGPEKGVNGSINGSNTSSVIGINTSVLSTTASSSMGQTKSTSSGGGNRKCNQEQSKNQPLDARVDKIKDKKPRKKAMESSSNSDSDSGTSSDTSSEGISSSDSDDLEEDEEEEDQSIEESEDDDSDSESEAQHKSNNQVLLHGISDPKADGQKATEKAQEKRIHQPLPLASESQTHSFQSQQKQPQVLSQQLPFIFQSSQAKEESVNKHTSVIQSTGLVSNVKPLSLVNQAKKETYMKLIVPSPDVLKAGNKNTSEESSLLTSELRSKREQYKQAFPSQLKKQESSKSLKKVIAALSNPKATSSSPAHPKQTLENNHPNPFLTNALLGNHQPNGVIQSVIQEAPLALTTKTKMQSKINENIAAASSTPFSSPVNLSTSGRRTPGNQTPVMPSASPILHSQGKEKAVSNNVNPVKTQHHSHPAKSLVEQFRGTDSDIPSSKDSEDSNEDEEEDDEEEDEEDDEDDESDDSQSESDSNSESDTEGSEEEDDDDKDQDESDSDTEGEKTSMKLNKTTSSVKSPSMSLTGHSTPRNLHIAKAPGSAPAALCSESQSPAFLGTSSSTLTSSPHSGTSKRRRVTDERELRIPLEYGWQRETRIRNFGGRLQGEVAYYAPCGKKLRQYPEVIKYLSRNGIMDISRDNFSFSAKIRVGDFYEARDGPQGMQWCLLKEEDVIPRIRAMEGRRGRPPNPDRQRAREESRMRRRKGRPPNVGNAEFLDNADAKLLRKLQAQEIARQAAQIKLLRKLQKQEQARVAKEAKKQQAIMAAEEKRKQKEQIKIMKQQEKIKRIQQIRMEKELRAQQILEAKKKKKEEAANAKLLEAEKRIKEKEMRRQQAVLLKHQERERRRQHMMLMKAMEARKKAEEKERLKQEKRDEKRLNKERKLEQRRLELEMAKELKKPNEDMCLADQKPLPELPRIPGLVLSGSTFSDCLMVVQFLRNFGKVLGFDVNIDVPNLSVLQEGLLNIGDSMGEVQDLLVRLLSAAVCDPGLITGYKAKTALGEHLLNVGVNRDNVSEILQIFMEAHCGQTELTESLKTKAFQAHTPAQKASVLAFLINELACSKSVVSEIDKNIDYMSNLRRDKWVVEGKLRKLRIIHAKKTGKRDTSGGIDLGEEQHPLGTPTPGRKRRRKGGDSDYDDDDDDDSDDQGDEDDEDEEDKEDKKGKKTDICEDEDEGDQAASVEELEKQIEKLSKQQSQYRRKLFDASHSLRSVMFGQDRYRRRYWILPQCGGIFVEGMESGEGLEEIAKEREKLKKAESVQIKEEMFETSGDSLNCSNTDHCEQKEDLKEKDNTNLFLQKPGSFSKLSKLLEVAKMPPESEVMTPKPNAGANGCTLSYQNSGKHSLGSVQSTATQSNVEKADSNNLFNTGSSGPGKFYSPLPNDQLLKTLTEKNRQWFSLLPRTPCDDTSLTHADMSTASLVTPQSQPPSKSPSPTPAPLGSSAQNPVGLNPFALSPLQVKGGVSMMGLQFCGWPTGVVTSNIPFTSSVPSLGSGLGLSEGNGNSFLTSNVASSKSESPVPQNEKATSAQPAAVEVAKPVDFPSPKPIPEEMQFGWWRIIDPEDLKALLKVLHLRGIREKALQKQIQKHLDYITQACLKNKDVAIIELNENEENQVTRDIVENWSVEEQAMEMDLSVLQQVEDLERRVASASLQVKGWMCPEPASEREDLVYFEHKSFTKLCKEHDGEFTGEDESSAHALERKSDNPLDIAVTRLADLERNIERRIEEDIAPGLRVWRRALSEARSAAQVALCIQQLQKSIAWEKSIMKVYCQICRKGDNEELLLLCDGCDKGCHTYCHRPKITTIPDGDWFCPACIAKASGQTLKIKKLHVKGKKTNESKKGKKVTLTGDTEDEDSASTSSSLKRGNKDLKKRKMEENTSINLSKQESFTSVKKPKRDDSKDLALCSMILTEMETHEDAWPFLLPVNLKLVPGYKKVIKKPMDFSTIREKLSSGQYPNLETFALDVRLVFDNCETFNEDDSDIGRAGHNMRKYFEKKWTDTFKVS
Assay: qHTS Assay for Inhibitors of BAZ2B; further: nearly all actives have a fitted effect of over 60% in size
Settings: AlphaScreen BAZ2B-H3K14Ac peptide displacement; series mostly up to 114 µM
The whole screen tested about 360,000 compounds, of which about 16,000 (4.4%) were called active. Inconclusive results (about 9%) are left out. The call rests on the fitted dose curve; in most records, active means well fitted inhibition curve with a large enough effect; inconclusive means small, poorly fitted or top-dose-only effect; inactive means no such curve, though single readings can be large or run the other way. The list comes from a sample in which actives are over-represented; it also holds close analogues and randomly drawn compounds.
Classes used: active, inactive

- COMPOUND: "O=[N+]([O-])C(=c1ccc2c(c1)N1C3=C(CCCC3)CC3CCCCC31N=2)[N+](=O)[O-] (stereo unspecified)"
  CLASS_LABEL: "active"
- COMPOUND: "COc1ccc(N2CCN(S(=O)(=O)CCNC(=O)C(c3ccccc3)c3ccccc3)CC2)cc1"
  CLASS_LABEL: "inactive"
- COMPOUND: "COc1ccccc1-c1nc(C(F)(F)F)c(OC)o1"
  CLASS_LABEL: "inactive"
- COMPOUND: "Nc1ccc(C(=O)Nc2ccccc2N)cc1"
  CLASS_LABEL: "inactive"
- COMPOUND: "O=C(CN1CCN(S(=O)(=O)c2ccc(F)cc2)CC1)Nc1ccccc1F"
  CLASS_LABEL: "inactive"
- COMPOUND: "Cc1ccc(Nc2nc(Cl)c(C=O)s2)cc1"
  CLASS_LABEL: "inactive"
- COMPOUND: "CN(CC(=O)Nc1ccccc1F)S(=O)(=O)c1ccc2c(c1)c(=O)n(C)c(=O)n2C"
  CLASS_LABEL: "inactive"
- COMPOUND: "CCOC(=O)c1sc(=S)n(-c2cccc(OC)c2)c1N"
  CLASS_LABEL: "active"
- COMPOUND: "COc1ccc(/C=C/c2noc(-c3ccccc3O)n2)cc1OC"
  CLASS_LABEL: "inactive"
- COMPOUND: "COc1ccc(CCNC(=O)c2cnc3sc(N4CCCCCC4)nn3c2=O)cc1OC"
  CLASS_LABEL: "inactive"
- COMPOUND: "COC(=O)c1scc(-c2ccccc2)c1S(=O)(=O)Nc1ccccc1"
  CLASS_LABEL: "inactive"

---

Target: Bromodomain adjacent to zinc finger domain protein 2B (Homo sapiens) (UniProt Q9UIF8)
Assay: qHTS Assay for Inhibitors of BAZ2B; further: nearly all actives have a fitted effect of over 60% in size
Details: AlphaScreen BAZ2B-H3K14Ac peptide displacement; series mostly up to 114 µM
Hit rate of the full screen: of about 360,000 compounds, about 16,000 (4.4%) were called active. Not shown: some 9% with an inconclusive outcome. Calls come from the whole dose curve; as a rule, active = well fitted inhibition curve with a large enough effect; inconclusive = small, poorly fitted or top-dose-only effect; inactive = no such curve, though single readings can be large or run the other way. The entries come from a sample that favours actives as a whole.
Classes used: 1 = active, 0 = inactive

- COMPOUND: "Cc1[nH]n(C)c(=O)c1N=Nc1ccc(S(C)(=O)=O)cc1"
  ASSAYED_TARGET: "Bromodomain adjacent to zinc finger domain protein 2B (Homo sapiens) (UniProt Q9UIF8)"
  CLASS_LABEL: 0
- COMPOUND: "CCOc1ccc(OCC)c(NS(=O)(=O)c2ccc3[nH]c(=O)ccc3c2)c1"
  ASSAYED_TARGET: "Bromodomain adjacent to zinc finger domain protein 2B (Homo sapiens) (UniProt Q9UIF8)"
  CLASS_LABEL: 0
- COMPOUND: "Cc1oc(-c2ccccc2F)nc1CN1CCC(C(=O)NCCc2ccc(Cl)cc2)CC1"
  ASSAYED_TARGET: "Bromodomain adjacent to zinc finger domain protein 2B (Homo sapiens) (UniProt Q9UIF8)"
  CLASS_LABEL: 0
- COMPOUND: "COC(=O)CCCC1=CC2=CC(=O)C(C)(OC(=O)c3cccs3)C(=O)C2=CN1CC(C)C (stereo unspecified)"
  ASSAYED_TARGET: "Bromodomain adjacent to zinc finger domain protein 2B (Homo sapiens) (UniProt Q9UIF8)"
  CLASS_LABEL: 0
- COMPOUND: "COc1ccc(-c2cn3ccc(C)cc3n2)cc1"
  ASSAYED_TARGET: "Bromodomain adjacent to zinc finger domain protein 2B (Homo sapiens) (UniProt Q9UIF8)"
  CLASS_LABEL: 0
- COMPOUND: "CCCS(=O)(=O)c1c(Nc2ccccc2C)sc(C(=O)c2ccccc2)c1N"
  ASSAYED_TARGET: "Bromodomain adjacent to zinc finger domain protein 2B (Homo sapiens) (UniProt Q9UIF8)"
  CLASS_LABEL: 0
- COMPOUND: "COc1ccc(-n2c(SCC(N)=O)nc3c(oc4ccccc43)c2=O)cc1"
  ASSAYED_TARGET: "Bromodomain adjacent to zinc finger domain protein 2B (Homo sapiens) (UniProt Q9UIF8)"
  CLASS_LABEL: 0
- COMPOUND: "O=C(CCCl)Nc1ccc(S(=O)(=O)NCc2ccco2)cc1"
  ASSAYED_TARGET: "Bromodomain adjacent to zinc finger domain protein 2B (Homo sapiens) (UniProt Q9UIF8)"
  CLASS_LABEL: 0
- COMPOUND: "COc1ccc(/C(O)=C2/C(=O)C(=O)N(CCCN(C)C)C2c2ccccc2)cc1OC (stereo unspecified)"
  ASSAYED_TARGET: "Bromodomain adjacent to zinc finger domain protein 2B (Homo sapiens) (UniProt Q9UIF8)"
  CLASS_LABEL: 0
- COMPOUND: "CCOc1cc(-c2nnc(SCC(=O)NC3CCCCC3)nc2-c2ccc(OC)c(OCC)c2)ccc1OC"
  ASSAYED_TARGET: "Bromodomain adjacent to zinc finger domain protein 2B (Homo sapiens) (UniProt Q9UIF8)"
  CLASS_LABEL: 1
- COMPOUND: "Cc1ccccc1C(=O)NC(=S)Nc1ccc(N2CCN(C(=O)c3ccccc3)CC2)cc1"
  ASSAYED_TARGET: "Bromodomain adjacent to zinc finger domain protein 2B (Homo sapiens) (UniProt Q9UIF8)"
  CLASS_LABEL: 0
- COMPOUND: "COc1ccc(N2CCN(c3ccc([N+](=O)[O-])cc3Cl)CC2)cc1"
  ASSAYED_TARGET: "Bromodomain adjacent to zinc finger domain protein 2B (Homo sapiens) (UniProt Q9UIF8)"
  CLASS_LABEL: 1
- COMPOUND: "N#C/C(=C/c1ccc(N2CCOCC2)o1)C(=O)N1CCOCC1"
  ASSAYED_TARGET: "Bromodomain adjacent to zinc finger domain protein 2B (Homo sapiens) (UniProt Q9UIF8)"
  CLASS_LABEL: 0
- COMPOUND: "COc1ccc(N2CCN(c3ccc([N+](=O)[O-])nc3)CC2)cc1"
  ASSAYED_TARGET: "Bromodomain adjacent to zinc finger domain protein 2B (Homo sapiens) (UniProt Q9UIF8)"
  CLASS_LABEL: 0
- COMPOUND: "CCCn1c2ccccc2c2cnn(CC(=O)N3CCCC(C(=O)OCC)C3)c(=O)c21 (stereo unspecified)"
  ASSAYED_TARGET: "Bromodomain adjacent to zinc finger domain protein 2B (Homo sapiens) (UniProt Q9UIF8)"
  CLASS_LABEL: 0
- COMPOUND: "CC1=C(C(=O)N2CCN(c3cccc(C(F)(F)F)c3)CC2)C2(CCCCC2)OC1=O"
  ASSAYED_TARGET: "Bromodomain adjacent to zinc finger domain protein 2B (Homo sapiens) (UniProt Q9UIF8)"
  CLASS_LABEL: 0
- COMPOUND: "CC(C)(C)OC(=O)N1CCC(c2c(C(=O)N3CCc4ccccc4C3)cnn2-c2ccc(F)cc2)CC1"
  ASSAYED_TARGET: "Bromodomain adjacent to zinc finger domain protein 2B (Homo sapiens) (UniProt Q9UIF8)"
  CLASS_LABEL: 0
- COMPOUND: "COc1ccc(CNc2nc(-c3ccc(Cl)cc3)nn2C(=O)c2ccccc2)cc1"
  ASSAYED_TARGET: "Bromodomain adjacent to zinc finger domain protein 2B (Homo sapiens) (UniProt Q9UIF8)"
  CLASS_LABEL: 0
- COMPOUND: "O=C(COC(=O)c1ccco1)NCc1ccc(Cl)cc1"
  ASSAYED_TARGET: "Bromodomain adjacent to zinc finger domain protein 2B (Homo sapiens) (UniProt Q9UIF8)"
  CLASS_LABEL: 0
- COMPOUND: "COc1ccc(NC(=O)Cn2c(=O)cc(C)c3c(C)nn(-c4cccc(Cl)c4C)c32)cc1OC"
  ASSAYED_TARGET: "Bromodomain adjacent to zinc finger domain protein 2B (Homo sapiens) (UniProt Q9UIF8)"
  CLASS_LABEL: 0
- COMPOUND: "COC(=O)Cc1ccc(NC(=S)NCc2ccccc2)cc1"
  ASSAYED_TARGET: "Bromodomain adjacent to zinc finger domain protein 2B (Homo sapiens) (UniProt Q9UIF8)"
  CLASS_LABEL: 0
- COMPOUND: "Cc1ccccc1C(=O)Nc1ccc(N2CCCCCC2)cc1"
  ASSAYED_TARGET: "Bromodomain adjacent to zinc finger domain protein 2B (Homo sapiens) (UniProt Q9UIF8)"
  CLASS_LABEL: 1
- COMPOUND: "CC(=O)N1CCCc2cc(S(=O)(=O)N3CCC(C(=O)NCc4ccc(F)cc4)CC3)ccc21"
  ASSAYED_TARGET: "Bromodomain adjacent to zinc finger domain protein 2B (Homo sapiens) (UniProt Q9UIF8)"
  CLASS_LABEL: 0
- COMPOUND: "O=C(c1cncc(Br)c1)N1CCN(c2ccc([N+](=O)[O-])cc2)CC1"
  ASSAYED_TARGET: "Bromodomain adjacent to zinc finger domain protein 2B (Homo sapiens) (UniProt Q9UIF8)"
  CLASS_LABEL: 0
- COMPOUND: "CCc1cnc2c(c1SCC(=O)c1ccccc1)c(=O)n(C)c(=O)n2C"
  ASSAYED_TARGET: "Bromodomain adjacent to zinc finger domain protein 2B (Homo sapiens) (UniProt Q9UIF8)"
  CLASS_LABEL: 0
- COMPOUND: "CN(C)S(=O)(=O)N1CCN(c2ccc([N+](=O)[O-])cc2)CC1"
  ASSAYED_TARGET: "Bromodomain adjacent to zinc finger domain protein 2B (Homo sapiens) (UniProt Q9UIF8)"
  CLASS_LABEL: 0
- COMPOUND: "COC(=O)CCCC1=CC2=CC(=O)C(C)(OC(=O)c3cccs3)C(=O)C2=CN1CC1CC1 (stereo unspecified)"
  ASSAYED_TARGET: "Bromodomain adjacent to zinc finger domain protein 2B (Homo sapiens) (UniProt Q9UIF8)"
  CLASS_LABEL: 0
- COMPOUND: "COc1cccc(C(=O)Nc2ccc3nc4n(c(=O)c3c2)CCCCC4)c1"
  ASSAYED_TARGET: "Bromodomain adjacent to zinc finger domain protein 2B (Homo sapiens) (UniProt Q9UIF8)"
  CLASS_LABEL: 0
- COMPOUND: "C=C(C)C(=O)Nc1cccc(C2=NOC3(C2)C[C@H](C(N)=O)N(C(=O)C(c2ccccc2)c2ccccc2)C3)c1 (stereo partly specified)"
  ASSAYED_TARGET: "Bromodomain adjacent to zinc finger domain protein 2B (Homo sapiens) (UniProt Q9UIF8)"
  CLASS_LABEL: 1
- COMPOUND: "CCOC(=O)c1c(C)[nH]c(C)c1S(=O)(=O)NCC(=O)NCc1cccc(C)c1"
  ASSAYED_TARGET: "Bromodomain adjacent to zinc finger domain protein 2B (Homo sapiens) (UniProt Q9UIF8)"
  CLASS_LABEL: 0
- COMPOUND: "COc1ccc(OC)c(CNC(=O)c2c3c(nc4ccccc24)C(=O)N(C2CCCCC2)C3)c1"
  ASSAYED_TARGET: "Bromodomain adjacent to zinc finger domain protein 2B (Homo sapiens) (UniProt Q9UIF8)"
  CLASS_LABEL: 0
- COMPOUND: "CCOC(=O)c1c(C)n(S(=O)(=O)c2ccc(C)cc2C)c2ccc(NS(=O)(=O)c3ccc(C)cc3C)cc12"
  ASSAYED_TARGET: "Bromodomain adjacent to zinc finger domain protein 2B (Homo sapiens) (UniProt Q9UIF8)"
  CLASS_LABEL: 0
- COMPOUND: "COc1cccc(C(=O)Nc2ccc(N3CCCC3)cc2)c1"
  ASSAYED_TARGET: "Bromodomain adjacent to zinc finger domain protein 2B (Homo sapiens) (UniProt Q9UIF8)"
  CLASS_LABEL: 1
- COMPOUND: "CCOC(=O)N1CCc2c(sc3c2c(=O)n(Cc2ccccc2)c(=O)n3CC(=O)Nc2cccc(C)c2)C1"
  ASSAYED_TARGET: "Bromodomain adjacent to zinc finger domain protein 2B (Homo sapiens) (UniProt Q9UIF8)"
  CLASS_LABEL: 0
- COMPOUND: "O=C(COC(=O)c1cnc(Cl)c(Cl)c1)NCc1ccco1"
  ASSAYED_TARGET: "Bromodomain adjacent to zinc finger domain protein 2B (Homo sapiens) (UniProt Q9UIF8)"
  CLASS_LABEL: 1
- COMPOUND: "Oc1c(Cl)cc(Cl)c(Cl)c1Cc1c(O)c(Cl)cc(Cl)c1Cl"
  ASSAYED_TARGET: "Bromodomain adjacent to zinc finger domain protein 2B (Homo sapiens) (UniProt Q9UIF8)"
  CLASS_LABEL: 1
- COMPOUND: "CCCN(CCC)S(=O)(=O)c1ccc(C(=O)Nc2sc3c(c2C(=O)OC)CCN(CC)C3)cc1"
  ASSAYED_TARGET: "Bromodomain adjacent to zinc finger domain protein 2B (Homo sapiens) (UniProt Q9UIF8)"
  CLASS_LABEL: 0
- COMPOUND: "COC/C=C/C1=CC2=CC(=O)C(C)(OC(=O)CCC(=O)OC)C(=O)C2=CO1 (stereo unspecified)"
  ASSAYED_TARGET: "Bromodomain adjacent to zinc finger domain protein 2B (Homo sapiens) (UniProt Q9UIF8)"
  CLASS_LABEL: 1
- COMPOUND: "Cc1ccn2cc(-c3nonc3C)cc2c1"
  ASSAYED_TARGET: "Bromodomain adjacent to zinc finger domain protein 2B (Homo sapiens) (UniProt Q9UIF8)"
  CLASS_LABEL: 1
- COMPOUND: "O=C(Nc1ccc(F)cc1F)c1ccc2c(=O)n3c(nc2c1)CCCCC3"
  ASSAYED_TARGET: "Bromodomain adjacent to zinc finger domain protein 2B (Homo sapiens) (UniProt Q9UIF8)"
  CLASS_LABEL: 0
- COMPOUND: "Cc1cccc(N=Nc2c(O)[nH]c3ccc(F)cc23)c1"
  ASSAYED_TARGET: "Bromodomain adjacent to zinc finger domain protein 2B (Homo sapiens) (UniProt Q9UIF8)"
  CLASS_LABEL: 0
